Data credit: patent EP2050747A1

Assignment: determine reported Kobs for the given molecules.
tested on: F-actin; experiment: Actin dynamics, fluorescence anisotropy assay in tumor cell cytosolic fraction; assay type: biochemical; parameters: unit not given beside the values; details: 10 µM, NIH 3T3 EF extract; rate constant of F-actin elongation

Please review the following examples before continuing.
Cc1nccc2c1[nH]c1cc(OCCCOc3ccc4c(c3)[nH]c3c(C)nccc34)ccc12 | 0,132
Cc1nccc2c1[nH]c1cc(OCCCCCOc3ccc4c(c3)[nH]c3c(C)nccc34)ccc12 | 0,179
Cc1nccc2c1[nH]c1cc(OCC3OC(C)(C)OC3COc3ccc4c(c3)[nH]c3c(C)nccc34)ccc12 (stereo not shown) | 0,158

Please look at the following molecule next.
[Q] Would you mind telling me what Kobs value was observed for "COc1ccc2c3ccnc(C)c3n(CCCCCn3c4cc(OC)ccc4c4ccnc(C)c43)c2c1" ?
[A] 0,104

###

tested on: B16F10; assay: Cloning assay, colony formation in semi solid medium (methylcellulose); type: cell-based, Murine; settings: Mus musculus, B16-F10, 168 h; B16F10, one week; read-out: Inhibition of colony formation (methylcellulose) IC50
quantity_kind: IC50 (nM)
One number for each entry, in nM.

Cc1nccc2c1[nH]c1cc(OCCCOc3ccc4c(c3)[nH]c3c(C)nccc34)ccc12 | 175
Cc1nccc2c1[nH]c1cc(OCC3OC(C)(C)OC3COc3ccc4c(c3)[nH]c3c(C)nccc34)ccc12 (stereo not shown) | 125
Cc1nccc2c1[nH]c1cc(OCCCCCOc3ccc4c(c3)[nH]c3c(C)nccc34)ccc12 | 30

[Q] Which IC50 is reported with B16F10 for this entry: "COc1ccc2c3ccnc(C)c3n(CCCCCn3c4cc(OC)ccc4c4ccnc(C)c43)c2c1" ?
[A] 40
